- Test system: Mus musculus
- Test Description: Acute toxicity in mice (LD100) after i.p. administration
- Assay type: organism-based
- Settings: in vivo, ip
Quantity Name: LD100 (mg/kg)
Report the figure in mg/kg without appending any unit label.

Use the examples below as a reference point.
>>> df
                                   molecule  observed_result
0  CCN(CCCN)CCCNc1nccc2c(C)c3[nH]c4ccncc4c3cc12               40
1  Cc1c2ccnc(NCCCN(C)C)c2c(C)c2c1[nH]c1ccncc12               20
2  CCN(CC)CCCNc1nccc2c(C)c3[nH]c4ccc(OC)cc4c3c(C)c12               60
3  CCN(CC)CCNc1nccc2c(C)c3c(cc12)c1cc(OC)ccc1n3C               30

Assign LD100 to the following record: CCN(CC)CCCNc1nccc2c(C)c3[nH]c4ccc(OC)cc4c3cc12
40

Assign LD100 to the following record: CCN(CC)CCCNc1nccc2c(C)c3[nH]c4ccncc4c3c(C)c12
20

###

- Test system: Mus musculus
- Test Description: Acute toxicity in mice (LD100) after i.p. administration
- Format: organism-based
- Settings: in vivo, ip
Quantity Name: LD100 (mg/kg)
Report the figure in mg/kg without appending any unit label.

Use the examples below as a reference point.
>>> print(df.to_string())
                                   compound   system_name  quantity_name  output_unit  observed_result
0  CCN(CC)CCCNc1nccc2c(C)c3c(c(C)c12)c1cc(O)ccc1n3C  Mus musculus          LD100        mg/kg               25
1  CCN(CC)CCCNc1nccc2c(C)c3[nH]c4ccc(O)cc4c3c(C)c12  Mus musculus          LD100        mg/kg               10
2  CCNCCCNc1nccc2c(C)c3c(c(C)c12)c1cc(O)ccc1n3C  Mus musculus          LD100        mg/kg               25
3  CCNCCCNc1nccc2c(C)c3[nH]c4ccc(OC)cc4c3cc12  Mus musculus          LD100        mg/kg               30

Assign LD100 to the following record: Cc1c2c(NCCCN(C)C)nccc2c(C)c2c1c1cc(O)ccc1n2C
50

Assign LD100 to the following record: CCN(CC)CCCNc1nccc2c(C)c3[nH]c4ccc(O)cc4c3cc12
7

Assign LD100 to the following record: CCN(CC)CCCNc1nccc2c(C)c3c(cc12)c1cc(O)ccc1n3C
25

Assign LD100 to the following record: CCN(CC)CCCNc1nccc2c(C)c3[nH]c4ccncc4c3cc12 [PAZELLIPTINE]
30

Assign LD100 to the following record: Cc1c2ccnc(NCC(O)CO)c2cc2c3c[nH]ccc-3nc12 (stereo not given)
60

Assign LD100 to the following record: Cc1c2ccnc(NCCCN(CCO)CCO)c2cc2c3c[nH]ccc-3nc12
100

###

- Test Description: Acute toxicity in mice (LD0) after i.p. administration (highest nontoxic dose)
- Format: organism-based
- Settings: mouse, in vivo, ip; read-out: LD0
Reported log10(MTD) values follow for various compounds
Give log10 of MTD, with MTD taken in mg/kg.

Use the examples below as a reference point.
In [3]: df
Out[3]:
                                   compound  quantity_name  observed_result
0  CCN(CC)CCCNc1nccc2c(C)c3[nH]c4ccc(OC)cc4c3cc12     log10(MTD)             1.30
1  CCNCCCNc1nccc2c(C)c3[nH]c4ccc(OC)cc4c3cc12     log10(MTD)             1.30
2  Cc1c2c(NCCCN(C)C)nccc2c(C)c2c1c1cc(O)ccc1n2C     log10(MTD)             1.00
3  COc1ccc2[nH]c3c(C)c4ccnc(NCCCN(CCCl)CCCl)c4cc3c2c1     log10(MTD)             1.18
4  CCN(CC)CCCNc1nccc2c(C)c3[nH]c4ccc(OC)cc4c3c(C)c12     log10(MTD)             1.18

Assign log10(MTD) to the following record: CCN(CC)CCCNc1nccc2c(C)c3[nH]c4ccncc4c3c(C)c12
1.00

Assign log10(MTD) to the following record: CCNCCCNc1nccc2c(C)c3[nH]c4ccncc4c3cc12
1.30

Assign log10(MTD) to the following record: CCN(CC)CC(O)CNc1nccc2c(C)c3[nH]c4ccncc4c3cc12 (stereo unspecified)
1.40

Assign log10(MTD) to the following record: CCN(CC)CCCNc1nccc2c(C)c3[nH]c4ccc(O)cc4c3c(C)c12
0.48

Assign log10(MTD) to the following record: CCN(CC)CCNc1nccc2c(C)c3c(cc12)c1cc(OC)ccc1n3C
1.30

Assign log10(MTD) to the following record: CCNCCCNc1nccc2c(C)c3[nH]c4ccc(OC)cc4c3c(C)c12
1.20

Assign log10(MTD) to the following record: CCN(CC)CCCNc1nccc2c(C)c3[nH]c4ccc(O)cc4c3cc12
0.40
